System: SK-MEL-28 melanoma
Assay Notes: NCI tumour cell line growth inhibition, 48 h
Property Measured: TGI (µM)
// units = µM; emit number, no label

Consider the reported TGI for these molecules:
- Molecule: "O=C(Nc1ccc(-n2cc(-c3ccncc3)c(-c3ccc(Cl)c(O)c3)n2)cc1)c1cc(C(F)(F)F)cc(C(F)(F)F)c1"
  TGI [µM]: 20
- Molecule: "O=C1C=CC2(O)OCC3C=C4O[C@@H]5OC6(CCCCC6)O[C@@H]5C4[C@@H]2[C@@H]13 (stereo not given in full)"
  TGI [µM]: 44.7
- Molecule: "CC(C)C(NCc1c2ccccc2[n+](C)c2ccccc12)C(=O)O (stereo not given)"
  TGI [µM]: 26.8

Value of TGI reported for the molecule COC(=O)[C@H](C)NC(=O)[C@H](NS(=O)(=O)c1nc2ccccc2s1)c1ccccc1 is 31.9

====

System: KM20L2 colon
Assay Notes: NCI tumour cell line growth inhibition, 48 h
Property Measured: TGI (µM)
Record the value in µM, omitting the unit from your answer.

- Compound: "Cc1ccc(-n2c3nc(=O)n(C)c(=O)c-3nc3ccccc32)c(C)c1"
  Unit Annotation: "µM"
  TGI: 17.6
- Compound: "Cc1cc(NC(=O)NC(=O)c2ccccc2NC(=O)CN(C)C)ccc1Oc1ncc(Br)cn1"
  Unit Annotation: "µM"
  TGI: 34.7
- Compound: "COc1ccc(/C=C/C(=O)c2c(-c3ccccc3)nn(C)c(=O)c2N2CCCCC2)cc1"
  Unit Annotation: "µM"
  TGI: 33.8

Documented TGI of COS(=O)c1cc(Cl)cc(Cl)c1OC(=O)CSSCC(=O)Oc1c(Cl)cc(Cl)cc1S(=O)OC (configuration not stated) : 67.2

Record summary for Cc1ccc(S(=O)(=O)Nc2ccccc2C(C)(C)C)cc1 : reported TGI = 36.7

====

Test system: HOP-62 NSCLC
Assay Notes: NCI tumour cell line growth inhibition, 48 h; in the data active = GI50 below about 0.43 µM; inactive = the rest
Outcome field: choose from true (1) for active, false (0) for inactive

Would you please look over these solved cases?
- Molecule: "Oc1cn(-c2ccc(Cl)cc2)nc1-c1n[nH]c(=S)n1-c1ccc(F)cc1"
  Classification: "false (0)"
- Molecule: "O=c1[nH]c2ccccc2cc1-c1nnc(Cc2ccccc2)o1"
  Classification: "false (0)"
- Molecule: "CN(C)C1C(=O)C(C(N)=O)=C(O)C2(O)C(=O)C3=C(O)c4c(O)cccc4C(C)(O)C3CC12.[Cl][Sb]([Cl])[Cl] (centres undefined)"
  Classification: "false (0)"
- Molecule: "CCc1ccc(Oc2c(-c3ccc(OCc4ccc(Cl)cc4)cc3O)nn(C)c2C(F)(F)F)cc1"
  Classification: "false (0)"
- Molecule: "C/C(=C/CCC(C)[C@@H]1CC[C@]2(C)C3=C(CC[C@@]12C)[C@@]1(C)CCC(=O)C(C)(C)[C@@H]1CC3)C(=O)O (some centres undefined)"
  Classification: "false (0)"

## Input Can you look up the reported call for O=C(O)c1ccccc1NCn1nc(-c2ccccc2O)oc1=S for me?
## Output false (0)

## Input Hi, do you know how Cc1ccccc1Nc1cc(O)c2c(=O)cc(-c3ccccc3)oc2c1 came out in this test?
## Output false (0)

## Input Call for entry Cc1ccc2ccc3c4ccccc4ccc3c2c1 :
## Output false (0)

## Input How was CC(=O)Nc1cccc(C#Cc2cncnc2Nc2ccc(OCc3cccc(F)c3)c(Cl)c2)c1 classified in this test?
## Output false (0)

====

Tested on: OVCAR-8 ovarian
Assay Notes: NCI tumour cell line growth inhibition, 48 h
Property Measured: TGI

- Compound: "Cc1cc(NC(=O)NC(=O)c2ccccc2NC(=O)CN(C)C)ccc1Oc1ncc(Br)cn1"
  TGI: "> 100 µM"

// TGI (OVCAR-8 ovarian) for Cc1cc2nc(N3C(=O)/C(=C/Cc4ccco4)N=C3c3ccccc3)sc2cc1C = > 100 µM

# lookup: O=C1Nc2noc(=O)nc2NO1 on OVCAR-8 ovarian, TGI = > 200 µM

GET /values?item= NC(=O)c1nc(-c2c(F)cccc2Cl)oc1Nc1ccc(C(=O)N2CCOCC2)cc1 &system= OVCAR-8 ovarian returns TGI: > 100 µM

TGI for OVCAR-8 ovarian with input CC(=O)Nc1cccc(C#Cc2cncnc2Nc2ccc(OCc3cccc(F)c3)c(Cl)c2)c1 equals 24.9 µM

Short answer on OVCAR-8 ovarian for O=C(O)C1CCC(=O)N1C(=O)COc1cc(Cl)c(Cl)cc1Cl (stereo not given) , TGI: > 100 µM

====

Tested on: A549 NSCLC
Assay Notes: NCI tumour cell line growth inhibition, 48 h; in the data active = GI50 below about 0.43 µM; inactive = the rest
Log the outcome using a class from 1 = active, -1 = inactive

Check out these entries, answers already filled in.
- Compound: "OCC1OC(OC2(CO)OC(CO)C(O)C2O)C(O)C(O)C1O (centres undefined)"
  Assayed System: "A549 NSCLC"
  Classification: -1
- Compound: "O=C(Nc1ccc(-n2cc(-c3ccncc3)c(-c3ccc(Cl)c(O)c3)n2)cc1)c1cc(C(F)(F)F)cc(C(F)(F)F)c1"
  Assayed System: "A549 NSCLC"
  Classification: -1
- Compound: "C/C(=C/CCC(C)[C@@H]1CC[C@]2(C)C3=C(CC[C@@]12C)[C@@]1(C)CCC(=O)C(C)(C)[C@@H]1CC3)C(=O)O (some centres undefined)"
  Assayed System: "A549 NSCLC"
  Classification: 1

Now consider a different compound.
## Input Recorded test outcome, item O=C1Nc2ccc(-c3cccnc3)cc2/C1=C/c1cc(Br)c(O)c(Br)c1
## Output -1

====

Tested on: 786-0 renal
Assay Notes: NCI tumour cell line growth inhibition, 48 h
Class (by TGI) -- low group: < 4 µM; middle group: ≥ 4 µM and < 30 µM; high group: ≥ 30 µM

// known answers, use as guide
- Compound: "CC(C)Oc1cccc(N2C(CCc3c[nH]c4ccc(Br)cc34)=NS(=O)(=O)c3cnccc32)c1"
  Classification: "high group"
- Compound: "Cn1c(CO)ccc1-c1ccc(-c2ccc(CO)[se]2)[se]1"
  Classification: "high group"

## Input Categorize the following entry: COc1ccc(C2C(=O)c3ccc(OC)cc3OC2c2cccnc2)cc1 (stereo unspecified)
## Output high group

## Input Where would N#CN1CC[C@H](C(=O)Nc2ncc(-c3ccccc3)s2)C1 land among the classes by reported TGI?
## Output low group

## Input Which class is correct for the following compound? [O-][n+]1c2cccc(O)c2[n+]([O-])c2cccc(O)c21
## Output high group

## Input Categorize the following entry: O=C(O)[C@H]1NC[C@H]2C(Br)=NO[C@@H]12
## Output high group

## Input Tag the class for N=C(N)n1cc(/C=N/N=C(N)N)cn1
## Output high group

====

# TGI annotations
System: HOP-62 NSCLC
Assay Notes: NCI tumour cell line growth inhibition, 48 h

Field: example entries. Status: answers known.
- Compound: "CCOC(=O)C(Cc1ccc(N=NN(C)C)cc1)NC(=O)CC1c2ccccc2-c2ccccc21 (stereo not given)"
  Assayed System: "HOP-62 NSCLC"
  TGI: "> 100 µM"
- Compound: "COCOC1CCCC[C@@]1(OCCOCCO[C@@]1(c2ccccc2)CCCC[C@H]1OCOC)c1ccccc1 (stereo not given in full)"
  Assayed System: "HOP-62 NSCLC"
  TGI: "> 100 µM"
- Compound: "BrC1(c2ccccc2)C[n+]2c(-c3ccccc3)cc(-c3ccccc3)cc2-c2ccccc21 (stereo not given)"
  Assayed System: "HOP-62 NSCLC"
  TGI: "7.41 µM"
- Compound: "CC(C)C(NCc1c2ccccc2[n+](C)c2ccccc12)C(=O)O (stereo not given)"
  Assayed System: "HOP-62 NSCLC"
  TGI: "19.7 µM"
- Compound: "CC(C)=CC1C(C(=O)OCc2cc3c(cc2Cl)OCO3)C1(C)C (stereo not given)"
  Assayed System: "HOP-62 NSCLC"
  TGI: "> 100 µM"
- Compound: "COc1ccc(C(=CCC(C)C2CCC3[C@@H]4C(OC(C)=O)CC5CC(OC(C)=O)CC[C@]5(C)C4CC(OC(C)=O)[C@]23C)c2ccc(OC)cc2)cc1 (stereo not given in full)"
  Assayed System: "HOP-62 NSCLC"
  TGI: "> 100 µM"
- Compound: "CNC(=O)OCc1nc(SSc2nc(COC(=O)NC)c(COC(=O)NC)n2C)n(C)c1COC(=O)NC"
  Assayed System: "HOP-62 NSCLC"
  TGI: "> 100 µM"
- Compound: "N#Cc1ccccc1Sc1ccccc1N"
  Assayed System: "HOP-62 NSCLC"
  TGI: "> 100 µM"
- Compound: "O=C1c2ccccc2-c2c1c1ccccc1c(=O)n2CCCNCCNCCCn1c2c(c3ccccc3c1=O)C(=O)c1ccccc1-2"
  Assayed System: "HOP-62 NSCLC"
  TGI: "0.582 µM"

The reported value for CC(C)(C)OC(=O)N[C@H]1CC(=O)c2ccccc2N(CC(=O)O)C1=O in terms of TGI is > 100 µM

Numbers sourced from PubChem BioAssay (NCI).
